# system_tested: M-phase inducer phosphatase 2 (Homo sapiens)
# protocol_description: Inhibition of Cdc25B (unknown origin) at 5 ug/ml
value_type: inhibition (%)

Look over these answered cases.
O=C(Nc1nnc(-c2ccc(Oc3ccc([N+](=O)[O-])cc3)cc2)s1)c1ccc(F)cc1 :: 31.7
O=C(Nc1nnc(-c2ccc(Oc3ccc([N+](=O)[O-])cc3)cc2)s1)c1cccnc1 :: 97
O=C(Nc1nnc(-c2ccc(Oc3ccc([N+](=O)[O-])cc3[N+](=O)[O-])cc2)s1)c1ccccc1F :: 99.3
O=C(Nc1nnc(-c2ccc(Oc3ccc([N+](=O)[O-])cc3)cc2)s1)c1ccccc1Cl :: 46.4
Cc1ccccc1C(=O)Nc1nnc(-c2ccc(Oc3ccc([N+](=O)[O-])cc3[N+](=O)[O-])cc2)s1 :: 93.7

[A] O=C(Nc1nnc(-c2ccc(Oc3ccc([N+](=O)[O-])cc3)cc2)s1)c1ccccc1F
[B] COc1ccccc1C(=O)Nc1nnc(-c2ccc(Oc3ccc([N+](=O)[O-])cc3)cc2)s1
Request: Between A and B , whose measured inhibition reads higher? Kindly give the label for the entry you pick.
Result: A
(A: 63.6%, B: 26.1%)

###

# system_tested: Tyrosine-protein phosphatase non-receptor type 1 (Homo sapiens)
# protocol_description: Inhibition of PTP1B (unknown origin) at 5 ug/ml
value_type: inhibition (%)

O=C(Nc1nnc(-c2ccc(Oc3ccc([N+](=O)[O-])cc3[N+](=O)[O-])cc2)s1)c1cccc(Cl)c1 :: 80.7

[I] O=C(Nc1nnc(-c2ccc(Oc3ccc([N+](=O)[O-])cc3[N+](=O)[O-])cc2)s1)c1ccccc1F
[II] O=C(Nc1nnc(-c2ccc(Oc3ccc([N+](=O)[O-])cc3[N+](=O)[O-])cc2)s1)c1ccc(Cl)cc1
Request: Record comparison, field inhibition: mark the lower of I and II . Kindly give the label for the entry you pick.
Result: II
(II: 42.3%, I: 88.4%)

###

# system_tested: UniProtKB P30305
# Sequence (P30305 whole entry): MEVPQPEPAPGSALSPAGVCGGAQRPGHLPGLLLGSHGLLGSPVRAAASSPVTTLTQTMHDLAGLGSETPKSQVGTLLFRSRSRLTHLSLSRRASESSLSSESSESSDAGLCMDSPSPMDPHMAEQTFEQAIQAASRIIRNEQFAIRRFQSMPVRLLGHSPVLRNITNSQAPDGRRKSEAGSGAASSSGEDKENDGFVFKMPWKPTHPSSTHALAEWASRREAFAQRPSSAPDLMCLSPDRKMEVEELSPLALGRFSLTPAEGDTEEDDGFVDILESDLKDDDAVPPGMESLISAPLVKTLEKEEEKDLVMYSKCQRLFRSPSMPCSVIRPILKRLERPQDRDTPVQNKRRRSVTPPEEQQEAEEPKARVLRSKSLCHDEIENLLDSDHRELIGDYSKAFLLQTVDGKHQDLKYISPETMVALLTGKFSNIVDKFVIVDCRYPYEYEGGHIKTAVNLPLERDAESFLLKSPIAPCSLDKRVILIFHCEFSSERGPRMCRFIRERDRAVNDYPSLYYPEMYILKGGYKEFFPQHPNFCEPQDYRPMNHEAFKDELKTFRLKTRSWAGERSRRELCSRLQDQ
# protocol_description: Inhibition of Cdc25B (unknown origin) at 5 ug/ml
value_type: inhibition (%)

Look over these answered cases.
COc1cc(C(=O)Nc2nnc(-c3ccc(Oc4ccc([N+](=O)[O-])cc4[N+](=O)[O-])cc3)s2)cc(OC)c1OC :: 84.5
Cc1ccc(C(=O)Nc2nnc(-c3ccc(Oc4ccc([N+](=O)[O-])cc4)cc3)s2)cc1 :: 25.8
COc1ccc(C(=O)Nc2nnc(-c3ccc(Oc4ccc([N+](=O)[O-])cc4)cc3)s2)cc1 :: 88.8
O=C(Nc1nnc(-c2ccc(Oc3ccc([N+](=O)[O-])cc3)cc2)s1)c1ccccc1 :: 86.3
O=C(Nc1nnc(-c2ccc(Oc3ccc([N+](=O)[O-])cc3)cc2)s1)c1ccccc1[N+](=O)[O-] :: 13
O=C(Nc1nnc(-c2ccc(Oc3ccc([N+](=O)[O-])cc3)cc2)s1)c1cccc([N+](=O)[O-])c1 :: 24.2
O=C(Cc1cccc2ccccc12)Nc1nnc(-c2ccc(Oc3ccc([N+](=O)[O-])cc3)cc2)s1 :: 90.4
Cc1ccc(C(=O)Nc2nnc(-c3ccc(Oc4ccc([N+](=O)[O-])cc4[N+](=O)[O-])cc3)s2)cc1 :: 94.5
O=C(Nc1nnc(-c2ccc(Oc3ccc([N+](=O)[O-])cc3[N+](=O)[O-])cc2)s1)c1ccc(Cl)cc1 :: 90.2
O=C(Nc1nnc(-c2ccc(Oc3ccc([N+](=O)[O-])cc3[N+](=O)[O-])cc2)s1)c1cccc([N+](=O)[O-])c1 :: 99.2

[a] O=C(Nc1nnc(-c2ccc(Oc3ccc([N+](=O)[O-])cc3)cc2)s1)c1ccc([N+](=O)[O-])cc1
[b] O=C(Cc1ccccc1)Nc1nnc(-c2ccc(Oc3ccc([N+](=O)[O-])cc3)cc2)s1
Request: Record comparison, field inhibition: mark the lower of a and b . Kindly give the label for the entry you pick.
Result: b

[A] COc1ccc(C(=O)Nc2nnc(-c3ccc(Oc4ccc([N+](=O)[O-])cc4[N+](=O)[O-])cc3)s2)cc1
[B] O=C(Cc1cccc2ccccc12)Nc1nnc(-c2ccc(Oc3ccc([N+](=O)[O-])cc3[N+](=O)[O-])cc2)s1
Request: Record comparison, field inhibition: mark the lower of A and B . Kindly give the label for the entry you pick.
Result: A
(A: 28.9%, B: 88.9%)
